Target: Rabies virus glycoprotein G, ERA strain (attenuated vaccine strain, ATCC VR332) (Rabies virus, ERA strain (genotype 1 lyssavirus)) (UniProt P03524)
Sequence (P03524 20-524 limits assumed): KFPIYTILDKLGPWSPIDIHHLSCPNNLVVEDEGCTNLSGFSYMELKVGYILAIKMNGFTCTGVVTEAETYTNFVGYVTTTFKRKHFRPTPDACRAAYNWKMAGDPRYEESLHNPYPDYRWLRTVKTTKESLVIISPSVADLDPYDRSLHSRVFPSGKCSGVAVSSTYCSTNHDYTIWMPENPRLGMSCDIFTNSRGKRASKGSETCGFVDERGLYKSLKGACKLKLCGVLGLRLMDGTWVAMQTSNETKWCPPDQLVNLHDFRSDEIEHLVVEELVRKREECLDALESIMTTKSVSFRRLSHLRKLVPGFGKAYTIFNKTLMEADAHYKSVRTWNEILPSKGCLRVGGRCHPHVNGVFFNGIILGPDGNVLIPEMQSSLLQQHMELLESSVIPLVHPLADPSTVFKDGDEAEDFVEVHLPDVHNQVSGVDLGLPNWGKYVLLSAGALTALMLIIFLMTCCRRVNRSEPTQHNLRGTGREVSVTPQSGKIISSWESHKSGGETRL
Assay: cell-based or functional assay
property-label: ERA neutralizing antibody titer (RFFIT): nM IC50

For the binder shown here, LG214A8 (VHH) VHH: EVQLVKSGGGSVQAGGSLRLSCAASGGTFNPYVMAWFRQAPGNEREFVARIRWSGGDAYYDDSVKGRFAITRDAAKNTVHLQMNSLKPEDTAVYYCAAATYGYGSYTYGGSYDLWGQGTQVTVSS , give the reported ERA neutralizing antibody titer (RFFIT): nM IC50.
> 8560 nM

For the binder shown here, LG213D6 (VHH) VHH: EVQLVESGGGLVQPGGSLRLSCAASGFTFGDSDMSWVRQAPGEGPEWVAGINSGGGSTVYADSVKGRFTISRDNAKNMLYLQMNSLKPEDTAVYLCAQGLMAEVTAGYWGQGTQVTVSS , give the reported ERA neutralizing antibody titer (RFFIT): nM IC50.
> 7820 nM

For the binder shown here, LG192A8 (VHH) VHH: EVQLVESGGGLVQAGGSLRLSCAASERTVIAYTMGWFRRAPGKERDFVAAMNWNGGNTIYADSAKGRFTISRDNAKNTVYLQMNSLKAEDTAVYYCAARPRFWGSYEYDYWGQGTQVTVSS , give the reported ERA neutralizing antibody titer (RFFIT): nM IC50.
> 4840 nM

For the binder shown here, LG214E8 (VHH) VHH: EVQLVESGGGSVQAGGSLRLSCAASGGTFNPYVMAWFRQAPGNEREFVARIRWSGGDAYYDDSVKGRFAITRDAAKNTVHLQMNSLKPEDTAVYYCAAATYGYGSYTYGGSYDLWGQGTQVTVSS , give the reported ERA neutralizing antibody titer (RFFIT): nM IC50.
> 3870 nM
